target.desc: RSV-F of RSV subtype A strain A2 (1540) (respiratory syncytial virus subtype A, …, UniProt P03420 26-574)
experiment.summary: cell-based or functional assay
Listed here: items and their measured RSV-A2 (1540) Neutral. IC50 [pM].
value.kind: RSV-A2 (1540) Neutral. IC50 [pM] (pM)

1. H1H3592P3 (antibody, V domains shown) VH: EVQLVESGGDLVQPGRSLRLSCVASGFTFDDYAMHWVRQAPGKGLEWVSGVSWSGSTVGYADSVKGRFTVSRDNAQKSLYLQMNSLRAEDTALYYCVKDAYKFNYYYYGLDVWGQGTTVTVSS VL: EIVMTQSPATLSVSPGERATLSCRASQTILSNLAWYLQKPGQAPRLLIYGASTRATGLPARFSGSGSGTEFTLTISSLQSEDFAVYYCQQYNNWPLTFGGGTKVEIK	10
2. Control II (motavizumab sequence) (antibody, V domains shown) VH: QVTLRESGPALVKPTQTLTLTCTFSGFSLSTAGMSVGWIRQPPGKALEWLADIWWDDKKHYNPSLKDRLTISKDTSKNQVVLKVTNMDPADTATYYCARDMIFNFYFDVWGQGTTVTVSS VL: DIQMTQSPSTLSASVGDRVTITCSASSRVGYMHWYQQKPGKAPKLLIYDTSKLASGVPSRFSGSGSGTEFTLTISSLQPDDFATYYCFQGSGYPFTFGGGTKVEIKR	14
3. H1H3627N (antibody, V domains shown) VH: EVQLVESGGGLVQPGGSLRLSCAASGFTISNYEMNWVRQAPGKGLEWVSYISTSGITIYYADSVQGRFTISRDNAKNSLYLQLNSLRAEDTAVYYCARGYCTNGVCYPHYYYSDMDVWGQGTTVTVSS VL: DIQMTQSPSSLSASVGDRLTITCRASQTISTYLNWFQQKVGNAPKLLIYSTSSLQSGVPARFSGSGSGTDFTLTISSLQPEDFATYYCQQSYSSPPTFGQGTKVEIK	2.6
